Form field: inhibition (one value per entry).
# system: Eukaryotic translation initiation factor 4E (Mus musculus) + Eukaryotic translation initiation factor 4 gamma 1 (Homo sapiens) (UniProt P63073+Q04637)
# Sequence (P63073 whole entry, looked up, the tested form may be a part): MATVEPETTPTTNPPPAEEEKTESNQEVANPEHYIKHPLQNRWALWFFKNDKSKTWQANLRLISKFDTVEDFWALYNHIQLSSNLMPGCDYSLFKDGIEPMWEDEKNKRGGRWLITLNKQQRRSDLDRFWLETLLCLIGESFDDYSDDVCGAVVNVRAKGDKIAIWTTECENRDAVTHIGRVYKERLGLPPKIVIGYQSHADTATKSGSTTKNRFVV
# Sequence (Q04637 whole entry, looked up, the tested form may be a part): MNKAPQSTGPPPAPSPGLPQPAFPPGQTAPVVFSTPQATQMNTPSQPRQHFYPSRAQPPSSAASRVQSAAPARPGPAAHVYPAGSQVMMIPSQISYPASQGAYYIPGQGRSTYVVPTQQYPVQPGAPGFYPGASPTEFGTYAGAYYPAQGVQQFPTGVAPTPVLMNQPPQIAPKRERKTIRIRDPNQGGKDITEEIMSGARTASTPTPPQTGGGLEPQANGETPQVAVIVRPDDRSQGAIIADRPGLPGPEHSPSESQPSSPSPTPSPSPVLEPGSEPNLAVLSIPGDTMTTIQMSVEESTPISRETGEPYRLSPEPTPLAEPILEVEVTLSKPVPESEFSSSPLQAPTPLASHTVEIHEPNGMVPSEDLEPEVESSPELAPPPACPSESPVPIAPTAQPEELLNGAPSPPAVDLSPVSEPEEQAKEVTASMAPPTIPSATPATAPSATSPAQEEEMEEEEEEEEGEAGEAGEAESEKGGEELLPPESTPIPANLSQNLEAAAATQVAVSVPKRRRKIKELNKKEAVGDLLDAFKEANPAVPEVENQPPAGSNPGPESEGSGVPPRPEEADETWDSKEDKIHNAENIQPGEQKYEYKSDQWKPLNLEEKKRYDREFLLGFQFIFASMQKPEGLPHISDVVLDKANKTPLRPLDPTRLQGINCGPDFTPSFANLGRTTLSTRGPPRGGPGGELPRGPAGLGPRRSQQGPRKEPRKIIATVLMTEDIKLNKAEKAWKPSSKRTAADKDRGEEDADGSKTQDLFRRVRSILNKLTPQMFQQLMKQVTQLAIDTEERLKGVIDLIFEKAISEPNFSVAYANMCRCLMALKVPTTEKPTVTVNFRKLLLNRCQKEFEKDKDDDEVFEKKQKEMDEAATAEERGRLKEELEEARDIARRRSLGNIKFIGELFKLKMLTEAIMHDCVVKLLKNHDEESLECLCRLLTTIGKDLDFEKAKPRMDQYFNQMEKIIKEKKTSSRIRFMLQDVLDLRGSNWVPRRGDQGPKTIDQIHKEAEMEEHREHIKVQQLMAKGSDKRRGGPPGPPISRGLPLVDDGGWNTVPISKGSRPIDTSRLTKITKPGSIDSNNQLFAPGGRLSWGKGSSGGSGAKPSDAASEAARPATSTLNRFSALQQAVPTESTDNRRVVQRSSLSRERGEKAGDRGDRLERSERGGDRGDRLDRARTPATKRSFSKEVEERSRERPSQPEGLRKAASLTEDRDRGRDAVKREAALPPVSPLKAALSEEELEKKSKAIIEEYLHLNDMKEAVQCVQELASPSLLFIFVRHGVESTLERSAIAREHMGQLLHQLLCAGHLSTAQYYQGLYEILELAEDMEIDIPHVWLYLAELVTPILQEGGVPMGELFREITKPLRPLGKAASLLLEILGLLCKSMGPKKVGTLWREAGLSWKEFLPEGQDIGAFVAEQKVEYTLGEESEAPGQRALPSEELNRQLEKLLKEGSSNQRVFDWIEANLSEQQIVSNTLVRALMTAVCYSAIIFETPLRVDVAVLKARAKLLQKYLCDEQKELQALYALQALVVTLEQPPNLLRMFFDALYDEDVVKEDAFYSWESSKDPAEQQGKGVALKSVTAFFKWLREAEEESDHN
# experiment description: eIF4E–eIF4G protein interaction inhibitors, primary screen, biochemical, uHTS, TR-FRET, eIF4GI fragment (AID 782);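 note: 0% = full FRET control wells and 100% = background wells lacking eIF4GI fragment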
# conditions: TR-FRET eIF4E-eIF4GI(517-606) binding, 2 h; at 21.7 µM; stronger effect = higher value
Hit rate of the full screen: of about 220,000 compounds, about 800 (0.36%) were called active. Many of the other results were omitted from the sample, so actives are more common in it than they were.
# output: bare number, implied unit %

The cases that follow already have their inhibition on record.
> print(dat)
                                   compound  readout.unit  result
1  CCCn1c(SCC(=O)Nc2cccc(C(=O)OCC)c2)nnc1-c1ccoc1C             %   -5.54
2  O=C1C(Cc2ccc(O)cc2)NC(=S)N1Cc1ccccc1 (stereo unspecified)             %    4.64
3  CCc1cccc(C)c1NC(=S)N(CCCN1CCN(C)CC1)Cc1cccs1             %   -3.86

Incoming: Sample "Cc1cccc2cc3c(N)c(C(=O)N4CCCc5ccccc54)sc3nc12" — what was its inhibition?
Outgoing: -0.81

Incoming: Sample "CC(C)(C)c1ccc(/C=C2\SC(=O)N=C2N)cc1" — what was its inhibition?
Outgoing: 2.64

Incoming: Sample "CSc1nnnn1-c1c(C)cc(C)cc1C" — what was its inhibition?
Outgoing: -8.98
